Type: physicochemical
measurement-parameters: Tween 80, aqueous with cosolvent or surfactant or cyclodextrin, thermodynamic from solid, solvent Tween 80; room temperature, >24 hours; read-out: Solubility
attribute-measured: solubility (mg/mL)
// return numeric value only (unit: mg/mL, not printed)

Please give the documented solubility of `S=C(NCc1ccc2c(c1)OCO2)N1CCN(c2ncnc3c2oc2ccccc23)CC1`
6.6

* * *

Format: physicochemical
measurement-parameters: Cremophor EL, organic solvent or mixture, thermodynamic from solid, solvent Cremophor EL; room temperature, >24 hours; read-out: Solubility
Counter-ions that a name gives are not always drawn.
attribute-measured: solubility (µg/mL)
// return numeric value only (unit: µg/mL, not printed)

Please give the documented solubility of S=C(NCc1ccc2c(c1)OCO2)N1CCN(c2ncnc3c2oc2ccccc23)CC1 [MP470.HCl, amuvatinib HCl]
7000
